The measured values listed here are drawn from PubChem BioAssay (NCI).

# Test system: T-47D breast
# Experiment summary: NCI-60 one-dose screen, 48 h
# Run conditions: 10 µM
Compounds without any hit were thinned out: in the full panel of roughly 83,000, 20% have a hit. Active and inactive are the calls of the source. The calls were made as follows: active = growth percent below 10; inactive = the rest.
Classes used: active, inactive

Compound	Label class
Cc1nc(N)sc1Sc1nc2ccc(Cl)cc2c(=O)n1-c1ccc(Oc2ccccc2)cc1	inactive
O=C1CC(c2cccc(-c3cccnc3)c2)=Nc2ccc(Br)cc2N1	active
CC(C)c1[nH]nc2c(NCc3ccc(-c4ccccn4)cc3)nc(SCCN)nc12	active
CNC(=O)c1cc(Oc2ccc(NC(=O)Nc3ccc(Cl)c(C(C)(C)C)c3)c(F)c2)ccn1	inactive
CCN(CC)CCn1c(=N)n(CC(O)c2ccc(Cl)c(Cl)c2)c2ccccc21 (configuration not stated)	inactive
CCCOCC(O)CNCCN (configuration not stated)	inactive
CC(CNC(Cc1ccccc1)c1ccccc1)NC(Cc1ccccc1)c1ccccc1 (configuration not stated)	inactive
Cc1nc2cc(-n3c(-c4ccc(F)cc4)nc4ccccc4c3=O)ccc2n1Cc1ccccc1	active
O=C(NNC(=O)c1ccncc1)Nc1ccc([N+](=O)[O-])cc1	inactive
COc1ccc(Cn2cc3c(c2-c2cc(OC)c(OC)c(OC)c2)CCc2cnoc2-3)cc1[N+](=O)[O-]	inactive
COc1cc(/C=C2\C(=O)Nc3cc(C)c(O)cc32)cc(OC)c1OC	inactive
Cc1ccccc1C1=N[C@@H](Cc2ccccc2)C(=O)c2c(nc3ccccn23)N1	inactive
CCCCCCCCCCCC(=O)NCCCN(C)C	inactive
CCCCCCCCCCCCc1ccc(C(=O)/C=C/C(=O)O)cc1	inactive
CC(=O)c1ccc(NCn2nc(-c3ccc(Cl)cc3)oc2=S)cc1	inactive
O=C(CCCC(=O)N/N=C/c1cc(Cl)ccc1O)N/N=C\c1cc(Cl)ccc1O	inactive
O=C(O)c1cc(C(F)(F)F)cc(C(F)(F)F)c1	inactive
COc1ccccc1S(=O)(=O)Nc1ccc2c(c1)CN(C)C(=O)N2	inactive
CCN(CC)CCCOC(=O)Nc1ccccc1Cl	inactive
COC(=O)C1(C(=O)OC)C2C(=O)C3C(C21)C3(C(=O)OC(C)(C)C)C(=O)OC(C)(C)C (configuration not stated)	inactive
Cc1[nH]nc2c(=S)[nH]c(=O)[nH]c12	inactive
Cn1c([N+](=O)[O-])cnc1/C=C1\Oc2ccc(Br)cc2C1=O	inactive
